- TARGET_UNDER_TEST: human recombinant PTP1B (hPTP1B) (Homo sapiens)
- Construct: made in house
- Sequence (P18031 whole entry): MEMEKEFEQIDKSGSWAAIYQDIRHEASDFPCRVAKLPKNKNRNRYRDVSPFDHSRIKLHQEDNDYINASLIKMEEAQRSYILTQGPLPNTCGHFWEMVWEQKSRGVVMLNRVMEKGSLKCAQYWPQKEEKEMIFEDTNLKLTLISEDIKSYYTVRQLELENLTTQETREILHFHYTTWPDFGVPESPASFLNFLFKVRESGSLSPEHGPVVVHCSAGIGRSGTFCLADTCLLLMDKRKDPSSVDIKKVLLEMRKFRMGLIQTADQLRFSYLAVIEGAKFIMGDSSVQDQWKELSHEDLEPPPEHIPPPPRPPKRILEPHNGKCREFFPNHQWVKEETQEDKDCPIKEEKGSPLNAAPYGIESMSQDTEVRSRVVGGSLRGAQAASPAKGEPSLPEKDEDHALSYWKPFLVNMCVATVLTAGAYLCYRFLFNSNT
- MEASUREMENT_PROTOCOL: Inhibition of tri-phosphorylated insulin receptor dodecaphosphopeptide dephosphorylation by hPTP1B (malachite green phosphate detection)
- Type: biochemical
- CONDITIONS: recombinant PTP1B, insulin receptor 1142-1153 triphosphopeptide substrate, 37° C., 30 min, pH 7.4
Structures can show the parent of a compound that is named as a salt.
For each of the compounds below, state its pIC50.
pIC50 field: float, defined as -log10 of concentration (mol/L).

What reported pIC50 corresponds to Cc1oc(Cc2ccc(Br)cc2)c(C(=O)c2ccc(OS(=O)(=O)c3ccc(C(=O)O)c(O)c3)c(C3CCCC3)c2)c1C on human recombinant PTP1B (hPTP1B) (Homo sapiens)? 6.57

Request: pIC50, test system human recombinant PTP1B (hPTP1B) (Homo sapiens), entry Cc1oc(Cc2ccccc2)c(C(=O)c2ccc(OS(=O)(=O)c3ccc(C(=O)O)c(O)c3)c(C3CCCC3)c2)c1C 6.19

Recorded pIC50 for CCc1oc2ccccc2c1C(=O)c1cc(C(C)C)c(OS(=O)(=O)c2ccc(C(=O)O)c(O)c2)c(C(C)C)c1 with human recombinant PTP1B (hPTP1B) (Homo sapiens), please? 6.25

Item CCc1cc(C(=O)c2c(Cc3ccccc3)oc(C)c2C)cc(CC)c1OS(=O)(=O)c1ccc(C(=O)O)c(O)c1 with human recombinant PTP1B (hPTP1B) (Homo sapiens) - pIC50? 6.20

State its pIC50 on human recombinant PTP1B (hPTP1B) (Homo sapiens): CCc1oc2ccccc2c1C(=O)c1cc(-c2ccccc2)c(OS(=O)(=O)c2ccc(C(=O)O)c(O)c2)c(-c2ccccc2)c1 [Example 6, sodium salt] 6.59

The origin of these recorded values is patent US6683107B2.
